Data provenance is the kinase profiling compilation of Christmann-Franck et al. (2016).

Target: EPHB1 (human)
Assay: Caliper, Mobility shift assay off-chip
Conditions: compound 0.2 µM
recorded_metric: inhibition (%)

INSERT INTO measurements (chemical_structure, recorded_number) VALUES
  ('Cc1ccc(Nc2nccc(N(C)c3ccc4c(C)n(C)nc4c3)n2)cc1S(N)(=O)=O', -1.6),
  ('COc1cc2c(Oc3ccc4[nH]c(C)cc4c3F)ncnc2cc1OCCCN1CCCC1', -0.3),
  ('CCN(CC)CCNC(=O)c1c(C)[nH]c(/C=C2\C(=O)Nc3ccc(F)cc32)c1C', 34.5),
  ('CNC(=O)c1cc(Oc2ccc(NC(=O)Nc3ccc(Cl)c(C(F)(F)F)c3)cc2)ccn1', 8.5);
